- tgt: biotinylated anti-human CD3ε antibody (capture surface of Example 6)
- test.protocol: SPR Biacore T200; IgG 1 ug/ml over captured biotinylated anti-human CD3ε antibody, normalised to anti-human IgG surface and to the unstressed sample; sample stressed 14 d/40° C. pH 6.0
assay.metric: Relative active concentrations (%)
Your answer should be a plain number; it is taken to be in %.

# annotated cases, reported Relative active concentrations (%) shown
INSERT INTO results (binder, assay_metric, uom, numeric_readout) VALUES
  ('P1AF1286 H3L3 anti-idiotypic IgG1 (antibody, V domains shown) VH: QVQLVQSGSELKKPGASVKVSCKASGYTVTDYSMNWVRQAPGQGLEWMGWINTETGEPRYTQGFKGRFVFSLDTSVSTAYLQISSLKAEDTAVYYCAREGDYDVFDYWGQGTLVTVSS VL: DIVMTQSPDSLAVSLGERATINCRASKSVSTSSYSYMHWYQQKPGQPPKLLIKYVSYLESGVPDRFSGSGSGTDFTLTISSLQAEDVAVYYCQQSREFPYTFGQGTKLEIK', 'Relative active concentrations (%)', '%', 97),
  ('P1AF1284 H2L2 anti-idiotypic IgG1 (antibody, V domains shown) VH: QVQLVQSGSELKKPGASVKVSCKASGYTVTDYSMNWVRQAPGQGLEWMGWINTETGEPRYTDDFTGRFVFSLDTSVSTAYLQISSLKAEDTAVYYCAREGDYDVFDYWGQGTLVTVSS VL: DIVMTQSPDSLAVSLGERATINCKSSKSVSTSSYSYMHWYQQKPGQPPKLLIKYVSYLESGVPDRFSGSGSGTDFTLTISSLQAEDVAVYYCQHSREFPYTFGQGTKLEIK', 'Relative active concentrations (%)', '%', 98);

I have this binder here, P1AF1285 H3L2 anti-idiotypic IgG1 (antibody, V domains shown) VH: QVQLVQSGSELKKPGASVKVSCKASGYTVTDYSMNWVRQAPGQGLEWMGWINTETGEPRYTQGFKGRFVFSLDTSVSTAYLQISSLKAEDTAVYYCAREGDYDVFDYWGQGTLVTVSS VL: DIVMTQSPDSLAVSLGERATINCKSSKSVSTSSYSYMHWYQQKPGQPPKLLIKYVSYLESGVPDRFSGSGSGTDFTLTISSLQAEDVAVYYCQHSREFPYTFGQGTKLEIK , and I need its recorded Relative active concentrations (%). 97
